pKi values recorded for Memapsin 1 (Homo sapiens, UniProt Q9Y5Z0)
pKi: −log10 of the molar value.

>>> df
                            chemical_smiles  readout_label  result
0  COC(=O)NC[C@H](NC(=O)OCc1nc(C)cs1)C(=O)N[C@@H](CC(C)C)[C@@H](O)C[C@@H](C)C(=O)N[C@H](C(=O)NCC(C)C)C(C)C            pKi  > 7.00

Consider now this further molecule.
Query pKi on Memapsin 1 (Homo sapiens, UniProt Q9Y5Z0) for Cc1csc(COC(=O)N[C@@H](CNC(=O)OC(C)(C)C)C(=O)N[C@@H](CC(C)C)[C@@H](O)C[C@@H](C)C(=O)N[C@H](C(=O)NCC(C)C)C(C)C)n1
Sequence (Q9Y5Z0 63-473 limits assumed): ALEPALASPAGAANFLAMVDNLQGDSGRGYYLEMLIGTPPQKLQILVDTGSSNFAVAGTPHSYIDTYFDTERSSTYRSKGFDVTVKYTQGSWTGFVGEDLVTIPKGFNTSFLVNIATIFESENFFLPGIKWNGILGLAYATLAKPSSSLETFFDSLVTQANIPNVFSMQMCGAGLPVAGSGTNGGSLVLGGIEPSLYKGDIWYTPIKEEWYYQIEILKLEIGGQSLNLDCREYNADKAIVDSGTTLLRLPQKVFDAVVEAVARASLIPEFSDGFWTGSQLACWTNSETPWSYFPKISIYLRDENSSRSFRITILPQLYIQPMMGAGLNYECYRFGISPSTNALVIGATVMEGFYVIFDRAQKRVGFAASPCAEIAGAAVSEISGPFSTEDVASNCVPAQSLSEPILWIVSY
6.22 to 7.00
